We begin with a simple list: items and their reported viability change, negative = cytotoxic.
experiment: qHTS assay to identify small molecule agonists of the AP-1 signaling pathway - cell viability counter screen (AID 1159525); conditions: ME-180 (cervical carcinoma) AP-1-bla cells viability, ATP luminescence, 5 h; series mostly up to 76.8 µM; also: nearly all actives have a fitted effect of over 55% in size
Records with an inconclusive call do not appear. The source made the active and inactive calls. Calls follow the shape of the full dose curve.

Solved entries (count: 4):
{"columns": ["Item Smiles", "viability change, negative = cytotoxic"],
 "data": [
  ["CCCCNc1ccc(NCCCC)c2c1C(=O)c1ccccc1C2=O", "-8.5% [at 15.8 µM] (inactive)"],
  ["C=C[Si](C)(C)Cl", "-3.04% [at 6.97 µM] (inactive)"],
  ["COc1cc2ncnc(Nc3cccc(Cl)c3)c2cc1OC", "-9.86% [at 15.8 µM] (inactive)"],
  ["COc1cc(C(C)C)ccc1C", "8.58% [at 15.8 µM] (inactive)"]
]}

Now consider the entry below.
Which viability change, negative = cytotoxic value belongs to "O=C(O)C[C@H](O)C[C@H](O)/C=C/c1c(C2CC2)nc2ccccc2c1-c1ccc(F)cc1" ?
2.51% [at 15.8 µM] (inactive)

====

assay: qHTS assay for identifying genotoxic compounds that show differential cytotoxicity against isogenic chicken DT40 cell lines with known DNA damage response pathways - Rad54/Ku70 mutant cell line (AID 743015); conditions: DT40 Rad54/Ku70 mutant viability, CellTiter-Glo, 40 h; series mostly up to 66.8 µM; also: nearly all actives have a fitted effect of over 60% in size; also: potency is read from the fitted curve at half-maximal effect
Results filed as inconclusive are left out. The source made the active and inactive calls. The call rests on the fitted dose curve; in most records, active means well fitted cell-killing curve with a large enough effect in the repeat runs; inconclusive means weak or mixed curves; inactive means no such curve, though single readings can be large or run the other way. Positions of bridges follow the written chain, without caps; N, C: chain ends. Non-standard residues stand in square brackets, D forms with d. Residues, ends and D or L forms follow the SMILES beside them. *: point of attachment. X1 = CC[C@@H](C)[C@@H](N)C1=N[C@H](C(=O)*)CS1; d(aIle) = CC[C@H](C)[C@@H](N)C(=O)O; dOrn = NCCC[C@@H](N)C(=O)O; Orn = NCCC[C@H](N)C(=O)O
Assay Metric: Potency

Solved entries (count: 10):
{"columns": ["Molecule", "Potency"],
 "data": [
  ["CN=C(N)NCCC[C@H](N)C(=O)O", "inactive"],
  ["CC[N+](CC)(CC)CCC(O)(c1ccccc1)C1CCCCC1 (configuration not stated)", "inactive"],
  ["C[C@@H]1C(=O)NC2=Nc3cccc(Cl)c3CN21", "inactive"],
  ["C=CCc1cc(S(=O)(=O)c2ccc(O)c(CC=C)c2)ccc1O", "54500 nM (active)"],
  ["CC12CCC(C1)C(C)(C)C2=O (configuration not stated)", "inactive"],
  ["NC(=O)[C@H]1O[C@@H](O)[C@H](O)[C@@H](O)[C@@H]1O", "inactive"],
  ["CCC(C)(C)c1ccc(CC(C)CN2C[C@@H](C)O[C@@H](C)C2)cc1 (some centres not stated)", "841 nM (active)"],
  ["NCC[C@H](O)C(=O)N[C@@H]1C[C@H](N)[C@@H](O[C@H]2O[C@H](CN)CC[C@H]2N)[C@H](O)[C@H]1O[C@H]1O[C@H](CO)[C@@H](O)[C@H](N)[C@H]1O", "inactive"],
  ["N[C@H](C(=O)O)[C@@H]1CC(Cl)=NO1", "2980 nM (active)"],
  ["C[C@]12O[C@H](C[C@]1(O)CO)n1c3ccccc3c3c4c(c5c6ccccc6n2c5c31)CNC4=O", "376 nM (active)"]
]}

Which Potency value belongs to CC(C)C[C@@H]1NC(=O)[C@H](CCCN)NC(=O)[C@H](C(C)C)NC(=O)[C@@H]2CCCN2C(=O)[C@@H](Cc2ccccc2)NC(=O)[C@H](CC(C)C)NC(=O)[C@H](CCCN)NC(=O)[C@H](C(C)C)NC(=O)[C@@H]2CCCN2C(=O)[C@@H](Cc2ccccc2)NC1=O (cyclo(V[Orn]L[dF]PV[Orn]L[dF]P)) ?
94.4 nM (active)

Which Potency value belongs to "CNC(=O)OCc1cccc(COC(=O)NC)n1" ?
inactive

Which Potency value belongs to "O=C1CC[C@@H](C(=O)N[C@H]2C[C@@H]2c2ccccc2)N1" ?
inactive

Which Potency value belongs to CC[C@@H](C)[C@@H](N)C1=N[C@H](C(=O)N[C@@H](CC(C)C)C(=O)N[C@@H](CCC(=O)O)C(=O)N[C@@H](C(=O)N[C@@H]2CCCCNC(=O)[C@@H](CC(N)=O)NC(=O)[C@@H](CC(=O)O)NC(=O)[C@@H](Cc3cnc[nH]3)NC(=O)[C@@H](Cc3ccccc3)NC(=O)[C@@H]([C@H](C)CC)NC(=O)[C@@H](CCCN)NC2=O)[C@@H](C)CC)CS1 (X1-LE[d(aIle)][dK][dOrn][dI][dF][dH][dD][dN]; lactam 4-C) ?
inactive

Which Potency value belongs to CC(Cc1ccc(O)c(O)c1)C(C)Cc1ccc(O)c(O)c1 (configuration not stated) ?
15400 nM (active)

Which Potency value belongs to "O=C1c2ccccc2CN2C(=O)c3ccccc3CN12" ?
inactive

Which Potency value belongs to "CC(C)C[C@@H](NC(=O)[C@@H](O)[C@H](N)Cc1ccccc1)C(=O)O" ?
inactive
